subject_of_test: Recombinant human mPGES-1 (Homo sapiens, UniProt O14684)
Construct: made in house; host or cells: CHO cells
assay_summary: In-vitro mPGES-1 inhibitor screening (inhibition of PGE2 formation from PGH2, HTRF detection)
Format: biochemical
experimental_context: 10 μM test compound; crude microsomal fraction, 15 μM PGH2; read-out: Percentage inhibition at 10 μM
Experimental: In-Vitro Protocol for Screening of mPGES-1 Inhibitors: […] Inhibition of mPGES-1 enzyme activity was measured using the percent of reaction occurring in the positive control. […] The IC50 value was calculated from the concentration response curve by nonlinear regression analysis using GraphPad PRISM software.
measured_endpoint: inhibition at 10 µM (%)

CC(C)(CO)C(=O)NCc1ccc(Cl)c(C(=O)Nc2cccc3c(Oc4cccc(C(F)(F)F)c4)ncnc23)c1F	96.8
CC(C)(C)C(=O)NCc1ccc(Cl)c(C(=O)Nc2cccc3c(Nc4ccc(C(F)(F)F)nc4)ncnc23)c1F	99.1
CCOc1ncnc2c(NC(=O)c3c(Cl)ccc(CNC(=O)C(C)(C)C)c3F)cccc12	99.9
O=C(Nc1cccc2c(Nc3cc(C(F)(F)F)ccc3F)ncnc12)c1c(F)cccc1Cl	84
CC(C)(C)Nc1ncnc2c(NC(=O)c3c(Cl)ccc(CNC(=O)C(C)(C)C)c3F)cccc12	97.8
CC(C)(C)C(=O)NCc1ccc(Cl)c(C(=O)Nc2cccc3c(Nc4cccc(C(F)(F)F)c4)ccnc23)c1F	98.7
CC(C)(C)C(=O)NCc1ccc(Cl)c(C(=O)Nc2cccc3c(Nc4ccc(C(F)(F)F)cc4F)ncnc23)c1F	99.8
CC(C)(C)C(=O)NCc1ccc(Cl)c(C(=O)Nc2cccc3c(Nc4cccc(C(F)(F)F)c4)ncnc23)c1	92.2
CC(C)C(=O)NCc1cnc(C(F)F)c(C(=O)Nc2cccc3c(NC(C)(C)C)ncnc23)c1	98.3
CC(C)(C)C(=O)NCc1ccc(Cl)c(C(=O)Nc2cccc3c(Nc4cccc(C(F)(F)F)c4)nccc23)c1	99.8
Cc1nc(NC2CCC(C)(C)CC2)c2cccc(NC(=O)c3c(Cl)ccc(CNC(=O)C(C)(C)C)c3F)c2n1	97.3
CC(C)(C)C(=O)NCc1ccc(Cl)c(C(=O)Nc2cccc3cccnc23)c1F	99.8
CC(C)(C)C(=O)NCc1ccc(Cl)c(C(=O)Nc2cccc3c(Nc4ccc(C(F)(F)F)cc4F)nccc23)c1	100
CC(C)(C)C(=O)NCc1ccc(Cl)c(C(=O)Nc2cccc3c(Nc4ccc(F)c(C(F)(F)F)c4)ncnc23)c1F	98.3
CC1(C)CCC(Nc2nc(C(F)(F)F)nc3c(NC(=O)c4c(Cl)ccc(CNC(=O)C(C)(C)C)c4F)cccc23)CC1	95.9

====

subject_of_test: Recombinant human mPGES-1 (Homo sapiens, UniProt O14684)
Construct: made in house; host or cells: CHO cells
Sequence (O14684 1-152): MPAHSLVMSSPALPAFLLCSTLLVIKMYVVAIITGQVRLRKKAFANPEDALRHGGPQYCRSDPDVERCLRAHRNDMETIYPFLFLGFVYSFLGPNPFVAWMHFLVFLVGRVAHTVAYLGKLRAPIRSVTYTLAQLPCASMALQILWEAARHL
assay_summary: In-vitro mPGES-1 inhibitor screening (inhibition of PGE2 formation from PGH2, HTRF detection)
Format: biochemical
experimental_context: 1 μM test compound; crude microsomal fraction, 15 μM PGH2; read-out: Percentage inhibition at 1 μM
In this section we review reported inhibition at 1 µM values for a set of molecules.
measured_endpoint: inhibition at 1 µM (%)

CC(C)(C)C(=O)NCc1ccc(Cl)c(C(=O)Nc2cccc3cccnc23)c1F	94.1
CC(C)(CO)C(=O)NCc1ccc(Cl)c(C(=O)Nc2cccc3c(Oc4cccc(C(F)(F)F)c4)ncnc23)c1F	96.7
CC(C)(C)C(=O)NCc1ccc(Cl)c(C(=O)Nc2cccc3c(Nc4cccc(C(F)(F)F)c4)nccc23)c1	98.6
CC(C)(C)C(=O)NCc1ccc(Cl)c(C(=O)Nc2cccc3c(Nc4cccc(C(F)(F)F)c4)nccc23)c1F	95.2
CC(C)(C)C(=O)NCc1ccc(Cl)c(C(=O)Nc2cccc3c(Oc4cccc(C(F)(F)F)c4)nccc23)c1F	99.5
CC(C)(C)C(=O)NCc1ccc(Cl)c(C(=O)Nc2cccc3c(N[C@H]4CC[C@H](C(F)(F)F)CC4)nccc23)c1F	98.1
CC(C)(C)C(=O)NCc1ccc(Cl)c(C(=O)Nc2cccc3c(O[C@H]4CC[C@H](C(F)(F)F)CC4)ncnc23)c1	98
CC(C)(C)C(=O)NCc1ccc(Cl)c(C(=O)Nc2cccc3c(N[C@H]4CC[C@H](C(F)(F)F)CC4)ncnc23)c1F	97.7
CC(C)(C)C(=O)NCc1ccc(Cl)c(C(=O)Nc2cccc3c(Oc4cccc(C(F)(F)F)c4)ncnc23)c1	99.7
CC(C)C(=O)NCc1cnc(C(F)F)c(C(=O)Nc2cccc3c(Oc4cccc(C(F)(F)F)c4)ncnc23)c1	100
COc1c(CNC(=O)C(C)(C)C)ccc(Cl)c1C(=O)Nc1cccc2c(Oc3cccc(C(F)(F)F)c3)ncnc12	91.9
CC(C)(C)C(=O)NCc1ccc(Cl)c(C(=O)Nc2cccc3c(O[C@H]4CC[C@@H](C(F)(F)F)CC4)nccc23)c1	85.1

Provenance of the data: patent US9006257B2
